Would you kindly list viability at 48 h, 1 µM for each of these compounds?
assay: Host cell viability assay (Cell-Titer Glo); conditions: human, HCT-8 cells, Host cell viability (%), 48 h, 1 μM
Quick reminder: number only, in %, skip the unit.

# compound COc1cc(CNC(=O)CCCCCCC(C)C)ccc1O [Dihydrocapsaicin] ; its viability at 48 h, 1 µM = 98.4

For CC(C)=CCC[C@](C)(O[C@@H]1O[C@H](CO)[C@@H](O)[C@H](O)[C@H]1O)[C@H]1CC[C@]2(C)[C@@H]1[C@H](O)C[C@@H]1[C@@]3(C)CC[C@H](O)C(C)(C)[C@@H]3[C@@H](O[C@@H]3O[C@H](CO)[C@@H](O)[C@H](O)[C@H]3O)C[C@]12C [Ginsenoside-Rg1] the compound record lists viability at 48 h, 1 µM as 99.1

Value of viability at 48 h, 1 µM reported for the compound CC(C)=CCC[C@](C)(O[C@@H]1O[C@H](CO)[C@@H](O)[C@H](O)[C@H]1O)[C@H]1CC[C@]2(C)[C@@H]1[C@H](O)C[C@@H]1[C@@]3(C)CC[C@H](O)C(C)(C)[C@@H]3[C@@H](O[C@@H]3O[C@H](CO)[C@@H](O)[C@H](O)[C@H]3O[C@@H]3O[C@@H](C)[C@H](O)[C@@H](O)[C@H]3O)C[C@]12C [Ginsenoside-Re] is 98.7

====

tested on: C. parvum HNJ-1 strain; test: In vitro C. parvum growth inhibition assay (Sporo-Glo staining, fluorescence microscopy count in infected HCT-8 cells); type: cell-based, Cryptosporidium parvum; details: Cryptosporidium parvum; 1 μM, 45 h, C. parvum HNJ-1 strain in HCT-8 cells, first screen; read-out: Parasite inhibition (%)
Give inhibition at 1 µM for every item shown.
Report the value in % with no unit label.

The value of inhibition at 1 µM measured for the molecule C[C@H](C[C@H](O)[C@@H](O)C(C)(C)O)C1=C2C[C@H](O)[C@H]3[C@@]4(C)CCC(=O)C(C)(C)[C@@H]4CC[C@]3(C)[C@@]2(C)CC1 [Alisol-A] turned out to be 78.1

Reported inhibition at 1 µM for CC(C)=CCC[C@](C)(O[C@@H]1O[C@H](CO)[C@@H](O)[C@H](O)[C@H]1O)[C@H]1CC[C@]2(C)[C@@H]1[C@H](O)C[C@@H]1[C@@]3(C)CC[C@H](O)C(C)(C)[C@@H]3[C@@H](O[C@@H]3O[C@H](CO)[C@@H](O)[C@H](O)[C@H]3O[C@@H]3O[C@@H](C)[C@H](O)[C@@H](O)[C@H]3O)C[C@]12C [Ginsenoside-Re] was 71.2

inhibition at 1 µM reported for this molecule CC(C)=CCC[C@](C)(O[C@@H]1O[C@H](CO)[C@@H](O)[C@H](O)[C@H]1O)[C@H]1CC[C@]2(C)[C@@H]1[C@H](O)C[C@@H]1[C@@]3(C)CC[C@H](O)C(C)(C)[C@@H]3[C@@H](O[C@@H]3O[C@H](CO)[C@@H](O)[C@H](O)[C@H]3O)C[C@]12C [Ginsenoside-Rg1] : 67.9

The measured inhibition at 1 µM associated with COc1cc(CNC(=O)CCCCCCC(C)C)ccc1O [Dihydrocapsaicin] reads 70.8

====

assay: Host cell viability assay (Cell-Titer Glo); settings: human, HCT-8 cells
measured-parameter: CC50 at 48 h (µM)
Form entry: value (µM) — number only.

Documented CC50 at 48 h of C[C@H](C[C@H](O)[C@@H](O)C(C)(C)O)C1=C2C[C@H](O)[C@H]3[C@@]4(C)CCC(=O)C(C)(C)[C@@H]4CC[C@]3(C)[C@@]2(C)CC1 [Alisol-A] : 59.6
